B1: LINE1-full (parent)
chain: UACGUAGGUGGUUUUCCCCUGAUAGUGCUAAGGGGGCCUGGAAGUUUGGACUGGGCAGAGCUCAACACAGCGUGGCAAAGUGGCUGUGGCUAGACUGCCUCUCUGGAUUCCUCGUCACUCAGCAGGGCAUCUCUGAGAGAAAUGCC

# Variants of: B1
# PROCEDURE TEXT: self-cleavage, relative activity (ratio to wild type); higher = more cleavage; in vitro, sequencing; the parent is a self-cleaving ribozyme
The threshold is inclusive: self-cleavage of exactly 1 counts as YES; values below receive NO.

[[record]]
changes = "A2C A65G"
label_class = "NO"

[[record]]
changes = "G54A A69C"
label_class = "NO"

[[record]]
changes = "A24G A94U"
label_class = "NO"

[[record]]
changes = "G80U A107G"
label_class = "NO"

[[record]]
changes = "G40A A117G"
label_class = "YES"

[[record]]
changes = "U20A A117G"
label_class = "YES"

[[record]]
changes = "U85G U132C"
label_class = "NO"

[[record]]
changes = "A65G U102C"
label_class = "NO"

[[record]]
changes = "U104C A107G"
label_class = "YES"

[[record]]
changes = "U39C A64U"
label_class = "NO"

[[record]]
changes = "U12C C113U"
label_class = "NO"

[[record]]
changes = "C120U A136G"
label_class = "YES"

[[record]]
changes = "U26A U130C"
label_class = "YES"

[[record]]
changes = "U96C G127C"
label_class = "NO"

[[record]]
changes = "A2C G93A"
label_class = "NO"

[[record]]
changes = "C38U U39A"
label_class = "YES"

[[record]]
changes = "G137U U143C"
label_class = "YES"

[[record]]
changes = "U20C C110U"
label_class = "YES"

[[record]]
changes = "U47A U62A"
label_class = "NO"

[[record]]
changes = "C16U"
label_class = "YES"

[[record]]
changes = "A22C A140G"
label_class = "YES"

[[record]]
changes = "U134A C146U"
label_class = "NO"

[[record]]
changes = "A77U U119A"
label_class = "YES"

[[record]]
changes = "G11A U29C"
label_class = "YES"

[[record]]
changes = "U26A G93A"
label_class = "NO"

[[record]]
changes = "A69C U132A"
label_class = "NO"

[[record]]
changes = "U26G A141G"
label_class = "NO"

[[record]]
changes = "G34U U134C"
label_class = "YES"

[[record]]
changes = "A67G G106U"
label_class = "NO"

[[record]]
changes = "U15A G36U"
label_class = "YES"

[[record]]
changes = "A31U G34A"
label_class = "NO"

[[record]]
changes = "G48U A136G"
label_class = "YES"

[[record]]
changes = "C19U A117U"
label_class = "YES"

